# test_description: Binding affinity to trypsin (unknown origin)
# Design: species or system Homo sapiens

{"smi": "COC(=O)Nc1ccc2c(c1)NC(=O)CCc1nc(ccc1F)C[C@H](NC(=O)/C=C/c1cc(Cl)ccc1-n1cnnn1)c1nc-2c[nH]1", "Ki": "670 nM"}
